- Test protocol: Henry solubility constant Hcp at 310 K (mol/(m3 Pa))
- Cond: reference: McIntosh and Heffron (2000)

[
  {
    "Smiles code": "Cc1ccccc1C",
    "Henry solubility constant Hcp at 310 K": 0.00096
  },
  {
    "Smiles code": "Cc1cccc(C)c1",
    "Henry solubility constant Hcp at 310 K": 0.00066
  },
  {
    "Smiles code": "Cc1ccc(C)cc1",
    "Henry solubility constant Hcp at 310 K": 0.00067
  },
  {
    "Smiles code": "Cc1ccccc1",
    "Henry solubility constant Hcp at 310 K": 0.00085
  },
  {
    "Smiles code": "ClCCl",
    "Henry solubility constant Hcp at 310 K": 0.0034
  }
]

====

Overview of reported Henry solubility constant Hcp across a group of compounds:
- Test protocol: Henry solubility constant Hcp at 298.15 K (mol/(m3 Pa))
- Cond: reference: Butler and Ramchandani (1935)
Readout type: Henry solubility constant Hcp

[
  {
    "Compound": "CCCCN",
    "Observed": 0.65
  },
  {
    "Compound": "CCN",
    "Observed": 0.99
  },
  {
    "Compound": "OCCO",
    "Observed": 160
  },
  {
    "Compound": "CCOC(C)=O [ethyl ethanoate]",
    "Observed": 0.074
  },
  {
    "Compound": "COC(C)=O [methyl ethanoate]",
    "Observed": 0.11
  },
  {
    "Compound": "OCC(O)CO",
    "Observed": 580
  }
]

====

- Test protocol: Henry solubility constant Hcp at 298.15 K (mol/(m3 Pa))
- Cond: reference: Tancrède and Yanagisawa (1990)
Readout type: Henry solubility constant Hcp

[
  {
    "Smiles code": "ClCC(Cl)CCl",
    "Observed": 0.044
  },
  {
    "Smiles code": "ClC(Cl)=C(Cl)Cl",
    "Observed": 0.00059
  },
  {
    "Smiles code": "ClC(Cl)(Cl)Cl",
    "Observed": 0.00034
  },
  {
    "Smiles code": "ClC=C(Cl)Cl",
    "Observed": 0.0013
  }
]

====

- Test protocol: Henry solubility constant Hcp at 298.15 K (mol/(m3 Pa))
- Cond: reference: O’Sullivan et al. (1996)
# Henry solubility constant Hcp per record follows

[
  {
    "Molecule": "OCOO [hydroxymethyl hydroperoxide]",
    "Henry solubility constant Hcp": 16000
  },
  {
    "Molecule": "CC(=O)OO",
    "Henry solubility constant Hcp": 8.3
  },
  {
    "Molecule": "OO [hydrogen peroxide]",
    "Henry solubility constant Hcp": 820
  },
  {
    "Molecule": "COO [methyl hydroperoxide]",
    "Henry solubility constant Hcp": 3.1
  },
  {
    "Molecule": "CCOO [ethyl hydroperoxide]",
    "Henry solubility constant Hcp": 3.3
  }
]

====

- Test protocol: Henry solubility constant Hcp at 298.15 K (mol/(m3 Pa))
- Cond: reference: Sanemasa et al. (1981)
Readout type: Henry solubility constant Hcp

[
  {
    "Smiles code": "Cc1ccccc1",
    "Readout type": "Henry solubility constant Hcp",
    "Observed": 0.0016
  },
  {
    "Smiles code": "CCc1ccccc1",
    "Readout type": "Henry solubility constant Hcp",
    "Observed": 0.0014
  },
  {
    "Smiles code": "Cc1cc(C)cc(C)c1",
    "Readout type": "Henry solubility constant Hcp",
    "Observed": 0.0011
  },
  {
    "Smiles code": "c1ccccc1",
    "Readout type": "Henry solubility constant Hcp",
    "Observed": 0.0017
  }
]

====

- Test protocol: Henry solubility constant Hcp at 298.15 K (mol/(m3 Pa))
- Cond: reference: Buttery et al. (1971)
Recorded Henry solubility constant Hcp for the following compounds

[
  {
    "Compound": "Cc1cnccn1",
    "Henry solubility constant Hcp": 4.5
  },
  {
    "Compound": "CCCCC/C=C/C=O [(E)-2-octenal]",
    "Henry solubility constant Hcp": 0.13
  },
  {
    "Compound": "C/C=C/C=C/C=O [(E,E)-2,4-hexadienal]",
    "Henry solubility constant Hcp": 1
  },
  {
    "Compound": "CCc1cnccn1",
    "Henry solubility constant Hcp": 4
  },
  {
    "Compound": "CC(C)Cc1cnccn1",
    "Henry solubility constant Hcp": 2
  },
  {
    "Compound": "COc1nccnc1CC(C)C",
    "Henry solubility constant Hcp": 0.2
  },
  {
    "Compound": "CCC/C=C/C=O [(E)-2-hexenal]",
    "Henry solubility constant Hcp": 0.2
  },
  {
    "Compound": "CCc1nccnc1OC",
    "Henry solubility constant Hcp": 0.67
  }
]

====

- Test protocol: Henry solubility constant Hcp at 298.15 K (mol/(m3 Pa))
- Cond: reference: Ramachandran et al. (1996)
Below, each entry is listed alongside its reported Henry solubility constant Hcp.

[
  {
    "Molecule": "Clc1ccccc1 [chlorobenzene]",
    "Henry solubility constant Hcp": 0.0029
  },
  {
    "Molecule": "ClC=C(Cl)Cl [trichloroethene]",
    "Henry solubility constant Hcp": 0.00083
  },
  {
    "Molecule": "Cc1ccccc1 [methylbenzene]",
    "Henry solubility constant Hcp": 0.0015
  },
  {
    "Molecule": "CC1CCCCC1 [methylcyclohexane]",
    "Henry solubility constant Hcp": 0.00015
  }
]

====

- Test protocol: Henry solubility constant Hcp at 298.15 K (mol/(m3 Pa))
- Cond: reference: Li et al. (2008)

[
  {
    "Smiles code": "Cc1ccccc1",
    "Henry solubility constant Hcp": 0.0015
  },
  {
    "Smiles code": "Clc1cccc(Cl)c1",
    "Henry solubility constant Hcp": 0.0029
  },
  {
    "Smiles code": "Cc1ccc(C)cc1",
    "Henry solubility constant Hcp": 0.0014
  },
  {
    "Smiles code": "CCc1ccccc1",
    "Henry solubility constant Hcp": 0.0014
  }
]

====

- Test protocol: Henry solubility constant Hcp at 298.15 K (mol/(m3 Pa))
- Cond: reference: Copolovici and Niinemets (2005)
// values below are reported Henry solubility constant Hcp
Readout type: Henry solubility constant Hcp

[
  {
    "Compound": "C=C(C)[C@@H]1CC=C(C)CC1 [(S)-1-methyl-4-(1-methylethenyl)-cyclohexene]",
    "Observed": 0.00035
  },
  {
    "Compound": "CC1=CCC(C(C)C)C=C1 (stereo unspecified)",
    "Observed": 0.00018
  },
  {
    "Compound": "CC1=CCC(=C(C)C)CC1",
    "Observed": 0.00038
  },
  {
    "Compound": "C=C(C)[C@H]1CC=C(C)CC1 [(R)-1-methyl-4-(1-methylethenyl)-cyclohexene]",
    "Observed": 0.00035
  },
  {
    "Compound": "C=C1C=CC(C(C)C)CC1 (stereo unspecified)",
    "Observed": 0.00018
  },
  {
    "Compound": "CC1=CC=C(C(C)C)CC1",
    "Observed": 0.00029
  }
]

====

- Test protocol: Henry solubility constant Hcp at 298.15 K (mol/(m3 Pa))
- Cond: reference: Roberts and Pollien (1997)
# if value of Henry solubility constant Hcp reaches 0.1, tag satisfied; if it stays below, tag not satisfied

[
  {
    "Molecule": "C=CC(O)CCCCC (stereo not given)",
    "Label value": "satisfied"
  },
  {
    "Molecule": "CCc1ncc(C)nc1CC",
    "Label value": "satisfied"
  },
  {
    "Molecule": "CSSSC",
    "Label value": "not satisfied"
  },
  {
    "Molecule": "CCOC(=O)C(C)CC (stereo not given) [ethyl 2-methylbutanoate]",
    "Label value": "not satisfied"
  },
  {
    "Molecule": "CCCCCC/C=C/C=O [(E)-2-nonenal]",
    "Label value": "not satisfied"
  }
]

====

- Test protocol: Henry solubility constant Hcp at 298.15 K (mol/(m3 Pa))
- Cond: reference: Wu et al. (2022b)
// reported Henry solubility constant Hcp for each item listed
Readout type: Henry solubility constant Hcp

[
  {
    "Compound": "Cc1cccc(C=O)c1 [3-methylbenzaldehyde]",
    "Observed": 0.3
  },
  {
    "Compound": "CCC(=O)C(C)=O [2,3-pentanedione]",
    "Observed": 0.13
  },
  {
    "Compound": "CC(=O)CCC=C(C)C [6-methyl-5-hepten-2-one]",
    "Observed": 0.12
  },
  {
    "Compound": "CC(=O)C(C)O (centres undefined) [3-hydroxy-2-butanone]",
    "Observed": 3.1
  }
]
